All values here come from patent US20250115598A1.

Target: endogenous MLKL in MDF (Mus musculus (Mouse))
Sequence (Q9D2Y4 whole entry): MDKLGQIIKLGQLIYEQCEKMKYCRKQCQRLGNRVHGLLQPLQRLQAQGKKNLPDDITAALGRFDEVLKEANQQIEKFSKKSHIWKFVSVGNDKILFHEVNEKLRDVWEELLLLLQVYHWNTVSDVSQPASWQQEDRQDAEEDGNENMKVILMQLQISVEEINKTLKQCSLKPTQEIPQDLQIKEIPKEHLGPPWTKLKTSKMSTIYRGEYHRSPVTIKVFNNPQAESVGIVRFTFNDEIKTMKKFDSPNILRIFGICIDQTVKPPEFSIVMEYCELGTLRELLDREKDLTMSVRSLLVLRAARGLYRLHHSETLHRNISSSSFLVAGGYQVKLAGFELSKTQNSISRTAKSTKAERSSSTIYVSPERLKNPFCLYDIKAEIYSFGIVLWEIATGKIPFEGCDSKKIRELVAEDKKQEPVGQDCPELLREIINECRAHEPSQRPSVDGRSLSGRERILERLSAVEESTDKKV
Experiment: Degradation assay: endogenous MLKL in MDF (western blot)
Settings: MDF cells, 24 h incubation with compound, MLKL adjusted for loading with GAPDH, normalized to DMSO only control, read-out: Degradation of endogenous MLKL in MDF (DC50 cell-based assay)
Method: Degradation Assay: Screening Compounds Procedure to Evaluate the Activity of Compounds in Degrading Endogenous MLKL in Human and Mouse Cell […] Membranes were blocked with 5% skim milk in TBST. […] The signal was detected as described above. The band intensity was measured in the ImageLab Software (BIO-RAD) and the MLKL values adjusted for loading with GAPDH. The percentage of degradation was calculated by normalizing the compound treated values to the DMSO only control.
result_type: DC50

Example molecules with recorded DC50:
molecule: Cc1ncsc1-c1ccc(CNC(=O)[C@@H]2C[C@@H](O)CN2C(=O)[C@@H](NC(=O)c2cccc(OCCn3cc(-c4cnc(N)c5c(-c6ccc(NS(=O)(=O)C(F)F)c(O[C@@H](C)c7ccc(F)cc7)c6)nn(C)c45)cn3)c2)C(C)(C)C)cc1
DC50: 1000 to 10000 nM
//
molecule: C[C@H](Oc1cc(-c2nn(C)c3c(-c4cnn(C5CCN(C(=O)[C@H]6C[C@H]6C6CCN(c7cccc8c7C(=O)N(C7CCC(=O)NC7=O)C8=O)CC6)CC5)c4)cnc(N)c23)ccc1NS(=O)(=O)C(F)F)c1ccc(F)cc1 (stereo in doubt)
DC50: < 1000 nM
//
molecule: Cc1ncsc1-c1ccc(CNC(=O)[C@@H]2C[C@@H](O)CN2C(=O)[C@@H](NC(=O)CCCCCCC#Cc2cnc(N)c3c(-c4ccc(NS(=O)(=O)C(F)F)c(O[C@@H](C)c5ccc(F)cc5)c4)nn(C)c23)C(C)(C)C)cc1
DC50: 1000 to 10000 nM
//
molecule: C[C@H](Oc1cc(-c2nn(C)c3c(-c4cnn(C5CCN(C(=O)[C@H]6C[C@@H]6C6CCN(c7cccc8c7C(=O)N(C7CCC(=O)NC7=O)C8=O)CC6)CC5)c4)cnc(N)c23)ccc1NS(=O)(=O)C(F)F)c1ccc(F)cc1 (stereo in doubt)
DC50: < 1000 nM
//
molecule: Cc1ncsc1-c1ccc(CNC(=O)[C@@H]2C[C@@H](O)CN2C(=O)[C@@H](NC(=O)COCCCCn2cc(-c3cnc(N)c4c(-c5ccc(NS(=O)(=O)C(F)F)c(O[C@@H](C)c6ccc(F)cc6)c5)nn(C)c34)cn2)C(C)(C)C)cc1
DC50: 1000 to 10000 nM
//
molecule: C[C@H](Oc1cc(-c2nn(C)c3c(-c4cnn(C5CCN(C(=O)CCC6CCN(c7cc8c(cc7F)C(=O)N(C7CCC(=O)NC7=O)C8=O)CC6)CC5)c4)cnc(N)c23)ccc1NS(=O)(=O)C(F)F)c1ccc(F)cc1 (some centres unmarked)
DC50: < 1000 nM
//
molecule: C[C@H](Oc1cc(-c2nn(C)c3c(-c4cnn(C5CCN(C(=O)C6CCN(c7cccc8c7C(=O)N(C7CCC(=O)NC7=O)C8=O)CC6)CC5)c4)cnc(N)c23)ccc1NS(=O)(=O)C(F)F)c1ccc(F)cc1 (some centres unmarked)
DC50: < 1000 nM
//
molecule: C[C@H](Oc1cc(-c2nn(C)c3c(-c4cnn(C5CCN(CCCN6CCN(C(=O)COc7cccc8c7C(=O)N(C7CCC(=O)NC7=O)C8=O)CC6)CC5)c4)cnc(N)c23)ccc1NS(=O)(=O)C(F)F)c1ccc(F)cc1 (some centres unmarked)
DC50: 1000 to 10000 nM

Provide value of DC50 for this record tested with endogenous MLKL in MDF (Mus musculus (Mouse)): C[C@H](Oc1cc(-c2nn(C)c3c(-c4cnn(C5CCN(Cc6ccc(CNc7cccc8c7C(=O)N(C7CCC(=O)NC7=O)C8=O)cc6)CC5)c4)cnc(N)c23)ccc1NS(=O)(=O)C(F)F)c1ccc(F)cc1 (some centres unmarked)
< 1000 nM

Next molecule: C[C@H](Oc1cc(-c2nn(C)c3c(C#CC(=O)N[C@H]4C[C@H](Nc5cccc6c5C(=O)N(C5CCC(=O)NC5=O)C6=O)C4)cnc(N)c23)ccc1NS(=O)(=O)C(F)F)c1ccc(F)cc1 (some centres unmarked)
< 1000 nM

Next molecule: Cc1ncsc1-c1ccc(CNC(=O)[C@@H]2C[C@@H](O)CN2C(=O)[C@@H](NC(=O)CCCCCCn2cc(-c3cnc(N)c4c(-c5ccc(NS(=O)(=O)C(F)F)cc5)nn(C)c34)cn2)C(C)(C)C)cc1
< 1000 nM

Next molecule: C[C@H](Oc1cc(-c2nn(C)c3c(-c4cnn(C5CCN(CCn6cc(CCNc7cccc8c7C(=O)N(C7CCC(=O)NC7=O)C8=O)nn6)CC5)c4)cnc(N)c23)ccc1NS(=O)(=O)C(F)F)c1ccc(F)cc1 (some centres unmarked)
< 1000 nM

Next molecule: C[C@H](Oc1cc(-c2nn(C)c3c(-c4cnn(C5CCN(C(=O)[C@H]6C[C@H](Nc7ccc8c(c7)C(=O)N(C7CCC(=O)NC7=O)C8=O)C6)CC5)c4)cnc(N)c23)ccc1NS(=O)(=O)C(F)F)c1ccc(F)cc1 (some centres unmarked)
< 1000 nM

Next molecule: C[C@H](Oc1cc(-c2nn(C)c3c(-c4cnn(C5CCN(C(=O)[C@]67C[C@](Nc8cccc9c8C(=O)N(C8CCC(=O)NC8=O)C9=O)(C6)C7)CC5)c4)cnc(N)c23)ccc1NS(=O)(=O)C(F)F)c1ccc(F)cc1 (some centres unmarked)
< 1000 nM

Next molecule: C[C@H](Oc1cc(-c2nn(C)c3c(-c4cnn(C5CCN(C(=O)C6CN(c7cccc8c7C(=O)N(C7CCC(=O)NC7=O)C8=O)CCO6)CC5)c4)cnc(N)c23)ccc1NS(=O)(=O)C(F)F)c1ccc(F)cc1 (some centres unmarked)
< 1000 nM

Next molecule: Cn1nc(-c2ccc(NS(=O)(=O)CC(F)(F)F)c(F)c2)c2c(N)ncc(-c3cnn(C4CCN(C(=O)[C@H]5C[C@H](Nc6cccc7c6C(=O)N(C6CCC(=O)NC6=O)C7=O)C5)CC4)c3)c21 (some centres unmarked)
< 1000 nM

Next molecule: C[C@H](Oc1cc(-c2nn(C)c3c(-c4cnn(C5CCN(CCc6cn(CCNc7cccc8c7C(=O)N(C7CCC(=O)NC7=O)C8=O)nn6)CC5)c4)cnc(N)c23)ccc1NS(=O)(=O)C(F)F)c1ccc(F)cc1 (some centres unmarked)
1000 to 10000 nM
